System: HTT mRNA
Experiment: Splicing RT-qPCR assay, HTT canonical (CJ) and alternative (AJ) junction mRNA
Assay type: cell-based, human
Conditions: Homo sapiens, A673 or K562 cells, 24 hours compound treatment, read-out: HTT AJ (AC50, increase in alternative junction mRNA)
Endpoint label: AC50

Known results for molecules:
Cc1cn2cc(NC(=O)c3ccc(N4C[C@H]5CC[C@@H](C4)N5)c4cc(C)oc34)cc(F)c2n1 ... 1 to 10 µM
Cc1cn2cc(NC(=O)c3ccc(N4CC[C@@H](NCC5CC5)C4)c4cn(C)nc34)cc(F)c2n1 ... 1 to 10 µM
Cc1cn2cc(NC(=O)c3ccc(N4CCNCC4)c4cn(C)nc34)ncc2n1 ... 1 to 10 µM

Measured AC50, Cc1cn2cc(NC(=O)c3ccc(N4CCC(N5C6CNCC65)C4)c4cn(C)nc34)cc(F)c2n1 (stereo not shown) : > 10 µM
